# EXPERIMENTAL_PROTOCOL: in vitro
# CONDITIONS: human
MEASUREMENT_TYPE: CC50 at 24 h (µM)
State the answer as a number, implicitly in µM.

Note CC50 at 24 h for the molecule shown: "CCOC(=O)c1ccc(OCCC2CCN(c3ccc(C)nn3)CC2)cc1"
52.9

Note CC50 at 24 h for the molecule shown: "Cc1cc2c(F)c(Oc3ncnn4cc(OC[C@@H](C)O)c(C)c34)ccc2[nH]1"
41.3

----------
# Tested on: EV-A71
# EXPERIMENTAL_PROTOCOL: Cytopathic effect (CPE) inhibition assay in RD cells
# Format: cell-based, Human enterovirus A71
# CONDITIONS: Enterovirus A, EVA71, RD, read-out: EC50, compound concentration required to achieve 50% protection from virus-induced cytopathogenicity
MEASUREMENT_TYPE: EC50
In your response, put the unit directly after the numeric value.

Note EC50 for the compound shown: "Cc1ccc(Nc2nccc(N(C)c3ccc4c(C)n(C)nc4c3)n2)cc1S(N)(=O)=O"
890 nM
